Readings of pH of peptide salt in aq. solution for the listed substances
# TEST: direct pH measurement of aqueous peptide salt solutions
# Type: physicochemical
# RUN PARAMETERS: before exchange (TFA salt), about 2–2.4 mg/mL peptide salt

Consider the following illustrative entries.
H2N-DRVYIHPF-COOH (H-DRVYIHPF-OH) [AT 2, angiotensin peptide synthesized by SPPS] : 2.63
H2N-RVYIHPF-COOH [AT 3] : 2.63
H2N-DRVYIHPFHL-COOH (H-DRVYIHPFHL-OH) [AT 1, angiotensin model peptide synthesized by SPPS] : 2.59

// switching to the query substance
Input line: Look up pH of peptide salt in aq. solution for this substance: H2N-VYIHPF-COOH [AT 4]
Output line: 2.39
